Target: TPM3-TRKA fusion protein (Homo sapiens, UniProt P04629)
Construct: The resulted chimeric proteins always retain the kinase domain of TRK proteins; TPM3 (fusion partner, N-terminal part of tropomyosin alpha-3, P06753); endogenous in cells; host or cells: KM12 colon cancer cells; the other entry of the earlier key: TPM3 (P06753, Tropomyosin alpha-3 chain)
Sequence (P04629 with tags, fused parts or gaps): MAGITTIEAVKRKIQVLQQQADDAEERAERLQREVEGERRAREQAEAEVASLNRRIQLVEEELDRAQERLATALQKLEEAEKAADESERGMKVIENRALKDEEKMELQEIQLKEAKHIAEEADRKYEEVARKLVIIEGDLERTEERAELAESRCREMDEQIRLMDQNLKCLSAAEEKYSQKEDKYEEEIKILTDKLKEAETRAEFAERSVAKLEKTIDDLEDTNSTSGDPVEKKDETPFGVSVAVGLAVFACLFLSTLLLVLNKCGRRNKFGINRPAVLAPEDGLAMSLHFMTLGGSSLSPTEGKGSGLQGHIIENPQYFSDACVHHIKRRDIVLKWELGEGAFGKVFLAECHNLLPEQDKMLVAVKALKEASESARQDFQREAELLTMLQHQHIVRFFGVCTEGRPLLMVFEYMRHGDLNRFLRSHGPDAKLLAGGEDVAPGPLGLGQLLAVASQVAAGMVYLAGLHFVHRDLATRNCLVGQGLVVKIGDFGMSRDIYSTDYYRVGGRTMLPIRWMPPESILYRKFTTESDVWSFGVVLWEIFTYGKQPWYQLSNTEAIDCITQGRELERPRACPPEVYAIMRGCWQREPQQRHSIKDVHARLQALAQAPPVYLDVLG
Assay: TPM3-TRKA fusion protein levels in KM12 cells (Western blot)
Format: cell-based
Details: 16 h; TPM3-TRKA degradation in KM12 cells at 10 nM; read-out: Degradation (at 10 nM)
Item-by-item account of percent degradation of TPM3-TRKA protein at 0.01 µM

Example entries begin here.
>>> endpoint_result("O=C1CCC(N2C(=O)c3ccc(NCCOCCOCCOCCOCCOCCC(=O)N4CCC(Nc5cccc(C(=O)Nc6cnn7ccc(N8CCC[C@@H]8c8cc(F)ccc8F)nc67)n5)CC4)cc3C2=O)C(=O)N1 (stereo partly drawn)")
"50 to 80%"
>>> endpoint_result("Cc1ncsc1-c1ccc(CNC(=O)[C@@H]2C[C@@H](O)CN2C(=O)[C@@H](NC(=O)CCCCCCCCC(=O)N2CCN(Cc3ccc(NC(=O)c4coc(N5CCOCC5)n4)c(N4CCC(C(N)=O)CC4)c3)CC2)C(C)(C)C)cc1")
"50 to 80%"

Okay, next one:
Asked: Param item = NC(=O)C1CCN(c2cc(CN3CCN(C(=O)CCCCNc4cccc5c4C(=O)N(C4CCC(=O)NC4=O)C5=O)CC3)ccc2NC(=O)c2coc(N3CCOCC3)n2)CC1 (stereo not drawn) ; retrieve measured percent degradation of TPM3-TRKA protein at 0.01 µM.
Given back: > 80%

###

Biological target: TPM3-TRKA fusion protein (Homo sapiens)
Construct: The resulted chimeric proteins always retain the kinase domain of TRK proteins; TPM3 (fusion partner, N-terminal part of tropomyosin alpha-3, P06753); endogenous in cells; host or cells: KM12 colon cancer cells; the other entry of the earlier key: TPM3 (P06753, Tropomyosin alpha-3 chain)
Test: TPM3-TRKA fusion protein levels in KM12 cells (Western blot)
Format: cell-based
Details: 16 h; TPM3-TRKA degradation in KM12 cells at 10 nM; read-out: Degradation (at 10 nM)
Item-by-item account of percent degradation of TPM3-TRKA protein at 0.01 µM

>>> endpoint_result("O=C1CCC(N2C(=O)c3ccc(NCCOCCOCCC(=O)N4CCC(Nc5cccc(C(=O)Nc6cnn7ccc(N8CCC[C@@H]8c8cc(F)ccc8F)nc67)n5)CC4)cc3C2=O)C(=O)N1 (stereo partly shown)")
"> 80%"
>>> endpoint_result("NC(=O)C1CCN(c2cc(CN3CCN(C(=O)CCNc4cccc5c4C(=O)N(C4CCC(=O)NC4=O)C5=O)CC3)ccc2NC(=O)c2coc(N3CCOCC3)n2)CC1 (stereo not shown)")
"50 to 80%"
>>> endpoint_result("NC(=O)C1CCN(c2cc(CN3CCN(C(=O)CCOCCOCCOCCNc4cccc5c4C(=O)N(C4CCC(=O)NC4=O)C5=O)CC3)ccc2NC(=O)c2coc(N3CCOCC3)n2)CC1 (stereo not shown)")
"50 to 80%"
>>> endpoint_result("COc1ccc(COc2ccc(Cn3c(N)nc4cc(-c5cnn(CC(=O)NCCCCCCCCCC(=O)N[C@H](C(=O)N6C[C@H](O)C[C@H]6C(=O)NCc6ccc(-c7scnc7C)cc6)C(C)(C)C)c5)cnc43)cc2OC)cc1")
"< 50%"
>>> endpoint_result("COc1ccc(COc2ccc(Cn3c(N)nc4cc(-c5cnn(CC(=O)NCCCCCCNc6cccc7c6C(=O)N(C6CCC(=O)NC6=O)C7=O)c5)cnc43)cc2OC)cc1 (stereo not shown)")
"> 80%"
>>> endpoint_result("NC(=O)C1CCN(c2cc(CN3CCN(C(=O)CCCCCNc4cccc5c4C(=O)N(C4CCC(=O)NC4=O)C5=O)CC3)ccc2NC(=O)c2coc(N3CCOCC3)n2)CC1 (stereo not shown)")
"> 80%"

Okay, next one:
Asked: Param item = NC(=O)C1CCN(c2cc(CN3CCN(C(=O)CCCNc4cccc5c4C(=O)N(C4CCC(=O)NC4=O)C5=O)CC3)ccc2NC(=O)c2coc(N3CCOCC3)n2)CC1 (stereo not shown) ; retrieve measured percent degradation of TPM3-TRKA protein at 0.01 µM.
Given back: > 80%

###

Item-by-item account of percent degradation of TPM3-TRKA protein at 0.01 µM
Target: TPM3-TRKA fusion protein (Homo sapiens, UniProt P04629)
Construct: The resulted chimeric proteins always retain the kinase domain of TRK proteins; TPM3 (fusion partner, N-terminal part of tropomyosin alpha-3, P06753); endogenous in cells; host or cells: KM12 colon cancer cells; the other entry of the earlier key: TPM3 (P06753, Tropomyosin alpha-3 chain)
Assay: TPM3-TRKA fusion protein levels in KM12 cells (Western blot)
Type: cell-based
Details: 16 h; TPM3-TRKA degradation in KM12 cells at 10 nM compound, category of percentage degradation; read-out: Degradation (at 10 nM)

Example entries begin here.
>>> endpoint_result("O=C1CCC(N2C(=O)c3ccc(N4CCOC(CN5CCN(c6ccc(C(=O)Nc7n[nH]c8ccc(Cc9cc(F)cc(F)c9)cc78)c(NC7CCOCC7)c6)CC5)C4)cc3C2=O)C(=O)N1 (stereo not shown) [TR-282]")
"> 80%"
>>> endpoint_result("O=C1CCC(N2C(=O)c3ccc(N4CC(N5CCN(c6ccc(C(=O)Nc7n[nH]c8ccc(Cc9cc(F)cc(F)c9)cc78)c(NC7CCOCC7)c6)CC5)C4)cc3C2=O)C(=O)N1 (stereo not shown) [TR-275]")
"50 to 80%"
>>> endpoint_result("O=C(CN1CCN(c2ccc(C(=O)Nc3n[nH]c4ccc(Cc5cc(F)cc(F)c5)cc34)c(NC3CCOCC3)c2)CC1)NCCOCCOCCOCCOCCOCCNc1ccc2c(c1)C(=O)N(C1CCC(=O)NC1=O)C2=O (stereo not shown) [TR-166]")
"> 80%"
>>> endpoint_result("O=C1CCC(N2Cc3ccc(N4CC(N5CCN(c6ccc(C(=O)Nc7n[nH]c8ccc(Cc9cc(F)cc(F)c9)cc78)c(NC7CCOCC7)c6)CC5)C4)cc3C2=O)C(=O)N1 (stereo not shown) [TR-336]")
"> 80%"
>>> endpoint_result("O=C1CCC(N2C(=O)c3ccc(N4CCOC(CN5CCN(c6cccc(-c7cnc8ccc(N9CCC[C@@H]9c9cccc(F)c9)nn78)n6)CC5)C4)cc3C2=O)C(=O)N1 (stereo partly shown) [TR-286]")
"> 80%"

Asked: Param item = O=C(CN1CCN(c2cccc(-c3cnc4ccc(N5CCC[C@@H]5c5cccc(F)c5)nn34)n2)CC1)NCCOCCNc1ccc2c(c1)C(=O)N(C1CCC(=O)NC1=O)C2=O (stereo partly shown) [TR-135] ; retrieve measured percent degradation of TPM3-TRKA protein at 0.01 µM.
Given back: > 80%

Asked: Okay, and O=C1CCC(N2Cc3cc(N4CC(N5CCN(c6cccc(-c7cnc8ccc(N9CCC[C@@H]9c9cccc(F)c9)nn78)n6)CC5)C4)ccc3C2=O)C(=O)N1 (stereo partly shown) [TR-331] ?
Given back: > 80%

Asked: Okay, and O=C1CCC(N2Cc3cc(C4CN(CC5CCN(c6ccc(C(=O)Nc7n[nH]c8ccc(Cc9cc(F)cc(F)c9)cc78)c(NC7CCOCC7)c6)CC5)C4)ccc3C2=O)C(=O)N1 (stereo not shown) [TR-330] ?
Given back: > 80%

###

Target: TPM3-TRKA fusion protein (Homo sapiens, UniProt P04629)
Construct: The resulted chimeric proteins always retain the kinase domain of TRK proteins; TPM3 (fusion partner, N-terminal part of tropomyosin alpha-3, P06753); endogenous in cells; host or cells: KM12 colon cancer cells; the other entry of the earlier key: TPM3 (P06753, Tropomyosin alpha-3 chain)
Experiment: TPM3-TRKA fusion protein levels in KM12 cells (Western blot)
Type: cell-based
Conditions: 16 h; TPM3-TRKA degradation in KM12 cells at 10 nM; read-out: Degradation (at 10 nM)
Protocol: KM12 cells were treated with DMSO or indicated compounds at 100 nM for 16 hours. KM12 cells were treated with DMSO or indicated compounds at 0. 1 nM, 1 nM or 10 nM for 16 hours. […] Cultured cells were washed with cold PBS once and lysed in cold RIPA buffer supplemented with protease inhibitors and phosphatase inhibitors (Beyotime Biotechnology). […] Total protein concentrations in the lysates were determined by BCA assays (Beyotime Biotechnology). […]
endpoint_label: percent degradation of TPM3-TRKA protein at 0.01 µM

Example entries begin here.
>>> endpoint_result("COc1ccc(COc2ccc(Cn3c(N)nc4cc(-c5cnn(CC(=O)NCCCCCCCCNc6cccc7c6C(=O)N(C6CCC(=O)NC6=O)C7=O)c5)cnc43)cc2OC)cc1 (stereo not drawn)")
"> 80%"
>>> endpoint_result("O=C1CCC(N2C(=O)c3ccc(NCCOCCC(=O)N4CCC(Nc5cccc(C(=O)Nc6cnn7ccc(N8CCC[C@@H]8c8cc(F)ccc8F)nc67)n5)CC4)cc3C2=O)C(=O)N1 (stereo partly drawn)")
"> 80%"

Okay, next one:
Asked: Param item = O=C1CCC(N2C(=O)c3ccc(NCCCCCC(=O)N4CCC(Nc5cccc(C(=O)Nc6cnn7ccc(N8CCC[C@@H]8c8cc(F)ccc8F)nc67)n5)CC4)cc3C2=O)C(=O)N1 (stereo partly drawn) ; retrieve measured percent degradation of TPM3-TRKA protein at 0.01 µM.
Given back: > 80%
